Hello, the source for this data is the Human Domainome abundance scans (Beltran et al. 2025), in case you need it.

Listing of entries alongside the reported abundance fitness.
B1: Calcium-binding protein 2, residues 155 to 219; numbered along this chain, Q9NPB3 (parent)
chain: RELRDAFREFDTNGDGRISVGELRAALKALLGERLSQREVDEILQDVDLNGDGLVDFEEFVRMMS

- Variants of: B1
- Assay protocol: abundance fitness (aPCA) (normalised: wild type 0, dead -1); higher = more abundant; growth selection in yeast, the domain comes from the species named
- Test conditions: Homo sapiens
Answer with the value's number alone.

# count of solved cases: 2
>>> reported_value("V55H")
-0.382
>>> reported_value("G21N")
-0.064

Input line: Please give the measured abundance fitness for this variant: L54D
Output line: -0.208

Input line: Please give the measured abundance fitness for this variant: F60W
Output line: -0.012

Input line: Please give the measured abundance fitness for this variant: D48P
Output line: -0.231

Input line: Please give the measured abundance fitness for this variant: K28M
Output line: -0.051

Input line: Please give the measured abundance fitness for this variant: Q45P
Output line: -0.133

Input line: Please give the measured abundance fitness for this variant: E9S
Output line: -0.133

Input line: Please give the measured abundance fitness for this variant: D52H
Output line: -0.049

Input line: Please give the measured abundance fitness for this variant: V47L
Output line: -0.475

Input line: Please give the measured abundance fitness for this variant: E22M
Output line: -0.535

Input line: Please give the measured abundance fitness for this variant: R38W
Output line: -0.107

Input line: Please give the measured abundance fitness for this variant: D52E
Output line: 0.043

Input line: Please give the measured abundance fitness for this variant: A29S
Output line: -0.02

Input line: Please give the measured abundance fitness for this variant: M63F
Output line: -0.081
